target: UniProt:Q96RI1; test: FXR Reporter Assay kit purchased from Indigo Bioscience (Catalogue number: IB00601) to determine the potency and efficacy of compound developed by Enanta that can induce FXR activation. The principle application of this reporter assay system is to quantify functional activity of human FXR. The assay utilizes non-human mammalian cells, CHO (Chinese hamster ovary) cells engineered to express human NR1H4 protein (referred to as FXR). Reporter cells also incorporate the cDNA encoding beetle luciferase which catalyzes the substrates and yields photon emission. Luminescence intensity of the reaction is quantified using a plate-reading luminometer, Envision. Reporter Cells include the luciferase reporter gene functionally linked to an FXR responsive promoter. Thus, quantifying changes in luciferase expression in the treated reporter cells provides a sensitive surrogate measure of the changes in FXR activity. […] The assay is according to the manufacturer's instructions. In brief, the assay was performed in white, 96 well plates using final volume of 100 ul containing cells with different doses of compounds. Retrieve Reporter Cells from −80° C. storage. Perform a rapid thaw of the frozen cells by transferring a 10 ml volume of 37° C. cell recovery medium into the tube of frozen cells. Recap the tube of Reporter Cells and immediately place it in a 37° C. water bath for 5-10 minutes. Retrieve the tube of Reporter Cell Suspension from the water bath. Sanitize the outside surface of the tube with a 70% alcohol swab, and then transfer it into the cell culture hood. Dispense 90 μl of cell suspension into each well of the 96-well Assay Plate. Transfer the plate into 37° C. incubator, allowing the cells adherent to the bottom of the well. Dilute compounds in Dilution Plate (DP), and administrate to cells at Assay Plate (AP). DMSO content of the samples was kept at 0.2%. Cells were incubated for additional 22 hours before luciferase activities were measured. Thirty minutes before intending to quantify FXR activity, remove Detection Substrate and Detection Buffer from the refrigerator and place them in a low-light area so that they may equilibrate to room temperature. Remove the plate's lid and discard all media contents by ejecting it into an appropriate waste container. Gently tap the inverted plate onto a clean absorbent paper towel to remove residual droplets. Cells will remain tightly adhered to well bottoms. Add 100 μl of luciferase detection reagent to each well of the assay plate. Allow the assay plate to rest at room temperature for at least 5 minutes following the addition of LDR. […] Read time may be 0.5 second (500 mSec) per well.
Sequence (Q96RI1 whole entry): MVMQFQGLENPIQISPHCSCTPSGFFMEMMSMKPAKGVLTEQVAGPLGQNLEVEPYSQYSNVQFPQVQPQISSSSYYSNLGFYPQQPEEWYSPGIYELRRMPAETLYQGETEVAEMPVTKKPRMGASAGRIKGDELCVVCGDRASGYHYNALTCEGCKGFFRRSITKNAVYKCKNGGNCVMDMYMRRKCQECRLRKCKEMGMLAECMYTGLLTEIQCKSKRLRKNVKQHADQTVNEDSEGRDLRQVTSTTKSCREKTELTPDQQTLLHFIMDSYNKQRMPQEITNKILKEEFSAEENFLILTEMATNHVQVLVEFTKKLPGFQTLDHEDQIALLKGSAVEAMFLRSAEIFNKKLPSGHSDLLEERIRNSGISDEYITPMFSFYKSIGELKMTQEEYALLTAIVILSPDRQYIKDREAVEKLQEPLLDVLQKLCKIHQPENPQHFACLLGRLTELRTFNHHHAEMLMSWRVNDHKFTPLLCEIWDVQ
quantity_name: EC50

Query block: Given the entry CC[C@H]1[C@@H](O)[C@@H]2[C@H](CC[C@]3(C)[C@@H]([C@H](C)C/C=C/c4ccc(F)cc4C(=O)O)CC[C@@H]23)[C@@]2(C)CC[C@@H](O)C[C@@H]12 , report its measured EC50.
Result block: < 0.1 µM
